Entry source: patent US9192577B2

{"test-smiles": "Cc1cc(C(=O)CC#N)cc(C)c1Nc1ccnc(Nc2ccc(C#N)cc2)n1", "melting point [°C]": 150}
{"test-smiles": "CCCCN(C)C(=O)/C=C/c1cc(C)c(Oc2ccnc(Nc3ccc(C#N)cc3)n2)c(C)c1", "melting point [°C]": 212}
{"test-smiles": "Cc1cc(/C=C/c2cccnc2)cc(C)c1Nc1ccnc(Nc2ccc(C#N)cc2)n1", "melting point [°C]": 120}

* * *

assay: cytotoxicity (CC50) in mock-infected MT-4 cells (MTT); format: cell-based; details: human, mock-infected MT-4 cells, −log CC50, MTT
Below, each entry is listed alongside its reported CC50.

{"compound": "Cc1cc(/C=C/C(=O)N2CCOCC2)cc(C)c1Oc1ccnc(Nc2ccc(C#N)cc2)n1 [Compound 216]", "CC50 [µM]": 10}
{"compound": "Cc1cc(C(O)CC#N)cc(C)c1Nc1ccnc(Nc2ccc(C#N)cc2)n1 (centres unmarked) [Compound 18]", "CC50 [µM]": 12.6}
{"compound": "Cc1cc(-n2cccc2)cc(C)c1Oc1ccnc(Nc2ccc(C#N)cc2)n1 [Compound 118]", "CC50 [µM]": 79.4}
{"compound": "C/C(C#N)=C/c1cc(C)c(Nc2ccnc(Nc3ccc(C#N)cc3)n2)c(C)c1 [Compound 11]", "CC50 [µM]": 2}
{"compound": "CO/N=C(\\c1cc(C)c(Nc2ccnc(Nc3ccc(C#N)cc3)n2)c(C)c1)C(C)C [Compound 9]", "CC50 [µM]": 15.8}
{"compound": "Cc1cc(/C=C/C(=O)N2CCN(C)CC2)cc(C)c1Nc1ccnc(Nc2ccc(C#N)cc2)n1 [Compound 155]", "CC50 [µM]": 0.501}
{"compound": "Cc1cc(/C=C/c2cccnc2)cc(C)c1Nc1ccnc(Nc2ccc(C#N)cc2)n1 [Compound 145]", "CC50 [µM]": 5.01}
{"compound": "Cc1cc(/C=C/C(=O)N(C)C)cc(C)c1Nc1ccnc(Nc2ccc(C#N)cc2)n1 [Compound 112]", "CC50 [µM]": 12.6}
